tested on: RSK1(Kin.Dom.2-C-terminal); construct: gene RPS6KA1; settings: concentration: 1 μM,replicates: in singlicate; n = 1;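 note: KINOMEscan kinase panel screen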
TEST READOUT: %Inh
Please provide the amount together with its unit, number first.

These recorded examples may help you get a feel for the data.
- Cc1ccc(CC(=O)N2CCc3cc(-c4cn(C)c5ncnc(N)c45)ccc32)cc1: 4%
- CCOC(=O)N1CCC(n2cnc(-c3ccc(F)cc3)c2-c2ccnc(N)n2)CC1: 32%
- CSc1nccc(-c2c(-c3ccc(F)cc3)ncn2CCCN2CCOCC2)n1.Cl: 17%
- C[C@@H]1CCN(C(=O)N2CCCC2)C[C@@H]1N(C)c1ncnc2[nH]ccc12: 14%
- CN(c1ccc2c(c1)nc(NCc1ccc(F)cc1)n2C)c1ccnc(Nc2ccc(CS(C)(=O)=O)cc2)n1.Cl: 32%

IN: Bench note: what %Inh did COc1ccc(Nc2nccc(N3CCC(NC(=O)c4cccc(C#N)c4)C3)n2)cc1 (stereo not drawn) show?
OUT: 0%

IN: Bench note: what %Inh did Cn1ccc2ncnc(Oc3ccc(NC(=O)Nc4cc(C(C)(C)C)on4)c(Cl)c3)c21 show?
OUT: 17%

IN: Bench note: what %Inh did Cc1ccc2c(-c3ccnc(Nc4ccc(C(F)(F)F)cc4)n3)cnn2n1 show?
OUT: 8%

IN: Bench note: what %Inh did O=C(Nc1ccccc1)c1cccc(Oc2ccc3nccn3n2)c1 show?
OUT: 100%
